tested on: HUVECs; assay: VEGF- or FBS-induced HUVEC proliferation assay (CCK-8); type: cell-based, human; conditions: Homo sapiens, HUVEC, 50 ng/ml VEGF165, 72 h, read-out: VEGF IC50
pIC50: −log10 of the molar value.

smiles record | pIC50
CCc1cc2c(cn1)C(c1ccccc1Cl)=Nc1c(n[nH]c1C)N2 | 6.34

====

molecular target: VEGFR2 (Homo sapiens)
Sequence (P35968 790-1356 limits assumed): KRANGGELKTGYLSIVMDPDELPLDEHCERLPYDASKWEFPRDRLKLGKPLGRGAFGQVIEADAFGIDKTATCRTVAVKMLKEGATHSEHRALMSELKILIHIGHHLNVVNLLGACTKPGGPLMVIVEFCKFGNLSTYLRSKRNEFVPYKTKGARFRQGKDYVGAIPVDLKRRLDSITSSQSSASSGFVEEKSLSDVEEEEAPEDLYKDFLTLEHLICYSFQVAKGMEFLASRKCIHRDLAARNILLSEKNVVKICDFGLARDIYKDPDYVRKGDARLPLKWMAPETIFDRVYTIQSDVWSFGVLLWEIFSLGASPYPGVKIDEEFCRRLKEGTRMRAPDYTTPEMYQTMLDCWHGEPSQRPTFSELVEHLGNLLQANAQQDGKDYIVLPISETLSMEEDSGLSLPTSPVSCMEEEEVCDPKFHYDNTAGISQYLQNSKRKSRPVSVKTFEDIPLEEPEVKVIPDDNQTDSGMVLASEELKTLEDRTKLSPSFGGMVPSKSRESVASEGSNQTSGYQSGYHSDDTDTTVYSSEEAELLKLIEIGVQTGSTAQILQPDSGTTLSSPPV
pIC50: −log10 of the molar value.

smiles record | pIC50
CCc1cc2c(cn1)C(c1ccccc1Cl)=Nc1c(n[nH]c1C)N2 | 6.99

====

System: SGC-7901 cells
Test: CCK-8 cell proliferation assay, SGC-7901
Format: cell-based
Conditions: Homo sapiens; SGC-7901, CCK-8, Fig. 3
Protocol: During the logarithmic growth phase, each cell line was seeded in a 96-well tissue culture plate (Thermo Fisher Scientific, Waltham, MA, USA) at a predetermined density in complete medium, attached overnight and treated with compound for the indicated time. […] The OD450 was measured with SpectraMax M5 (Molecular Devices, CA, USA). A background absorbance of ODblank was subtracted from all wells. The survival rate was determined with following formula: Survival rate (%) = ODcompound/ODDMSO × 100%. […]
pIC50: −log10 of the molar value.

smiles record | pIC50
CCc1cc2c(cn1)C(c1ccccc1Cl)=Nc1c(n[nH]c1C)N2 | 6.24
